- assay-details: DPPH free radical scavenging assay
- condition-notes: Table 3; isolated compounds; means ± SD (n = 3); NA is not active; listed as Quercetin (7); read-out: Antioxidants DPPH IC50
- Method: The DPPH free radical scavenging activity was determined as previously described with slight modifications. […] After 15 min incubation in the darkroom, the absorbance change at 570 nm was measured on a microplate reader (EL800 Universal Microplate reader, BioTek Instruments, Winooski, VT, USA). L-Ascorbic acid was used as positive control.
measured-parameter: pIC50
By convention, pIC50 is the negative base-10 log of a molar concentration.

Q) Suppose we examine the molecule O=c1c(O)c(-c2ccc(O)c(O)c2)oc2cc(O)cc(O)c12 [Compound 7, quercetin] ; what pIC50 value has been reported?
A) 6.48
